- System: Rattus norvegicus
- Assay Name: Antiulcerogenic activity in pylorus ligation-induced gastric ulcer Sprague-Dawley rat model assessed as stomach peptic activity measuring tyrosine release for 4 hrs at 7.2 mg/kg, po for 3 days (Rvb =5.70 +/-2.40 ug/ml )
- Format: functional
Listing of recorded Activity by entry.
Supply the numeric figure in µg/mL, leaving out any unit text.

Per the record, COc1c(C)cnc(CNc2ccc3c(c2)nc(C)n3C[C@@H](O)[C@H]2O[C@H](O)[C@@H](O)[C@H]2O)c1C has Activity of 4.56

// COc1ccnc(CNc2ccc3c(c2)nc(C)n3C[C@@H](O)[C@H]2O[C@H](O)[C@@H](O)[C@H]2O)c1C : Activity value = 4.34
